Data origin, for the record: patent US12421212B2

IC50 by entry:
Molecular target: IL-17A/A (Homo sapiens)
Construct: purchased Genscript Z03228
Sequence (Q16552 24-155): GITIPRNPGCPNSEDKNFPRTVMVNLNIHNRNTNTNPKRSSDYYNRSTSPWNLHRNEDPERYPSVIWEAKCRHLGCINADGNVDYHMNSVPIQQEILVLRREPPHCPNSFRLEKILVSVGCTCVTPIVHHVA
Experiment: IL-17A/A HEK-Blue Cell Assay
Assay type: cell-based
Settings: HEK-Blue IL-17A reporter cell line, SEAP readout at A630, 20 hours incubation with IL-17A/A; top concentration 10 uM, 1 uM or 0.3 uM; read-out: IL-17A/A inhibition (pIC50) (converted)

Example results:
[
  {
    "compound": "CCn1nccc1C(=O)N[C@H](C(=O)Nc1ccc([C@H](C)[C@@H](NC(=O)c2cc(C)on2)C(=O)N2CCN(C)CC2)cc1F)C1CCCCC1",
    "attribute-measured": "IC50",
    "endpoint-value": "100 to 10000 nM"
  },
  {
    "compound": "CCC(=O)N[C@@H](C(=O)N1CCN(C)CC1)[C@@H](C)c1ccc(NC(=O)[C@@H](NC(=O)c2coc3ccncc23)C2CCCCC2)c(F)c1",
    "attribute-measured": "IC50",
    "endpoint-value": "10 to 100 nM"
  },
  {
    "compound": "CCC(=O)N[C@H](Cc1ccc(NC(=O)[C@@H](NC(=O)c2coc3ccc(OC)cc23)C2CCCCC2)c(F)c1)C(=O)N1CCN(C)CC1",
    "attribute-measured": "IC50",
    "endpoint-value": "100 to 10000 nM"
  }
]

Then this compound:
Which IC50 is reported for this compound? CCC(=O)N[C@H](Cc1ccc(NC(=O)C(NC(=O)c2ccnn2CC)C2CCc3ccccc3C2)c(F)c1)C(=O)N1CCN(C)CC1 (stereo partly shown)
100 to 10000 nM
